- Test system: Glycine max
- ASSAY EXPLANATION: Inhibition of soybean lipoxygenase assessed as conversion of sodium linoleate to 13-hydroperoxylinoleic acid at 0.1 mM
MEASUREMENT LABEL: inhibition

- COMPOUND: "Cc1ccc2oc(=O)c(C(=O)Nc3ccccc3N)c(O)c2c1"
  MEASUREMENT LABEL: "inhibition"
  RESULT: "22%"
- COMPOUND: "O=C(O)CCCCC1CCSS1 (stereo not drawn) [LIPOIC ACID, ALPHA]"
  MEASUREMENT LABEL: "inhibition"
  RESULT: "29.1%"
- COMPOUND: "CCOC(=O)c1c(O)c2cc(C)ccc2oc1=O"
  MEASUREMENT LABEL: "inhibition"
  RESULT: "93%"
- COMPOUND: "Cc1ccc2oc(=O)c(C(=O)NCCN)c(O)c2c1"
  MEASUREMENT LABEL: "inhibition"
  RESULT: "14%"
- COMPOUND: "NCCNC(=O)c1c(O)c2ccccc2oc1=O"
  MEASUREMENT LABEL: "inhibition"
  RESULT: "100%"
- COMPOUND: "Cc1ccc2oc(=O)c(C(=O)NCCCCCCCCNC(=O)CCCCC3CCSS3)c(O)c2c1 (centres undefined)"
  MEASUREMENT LABEL: "inhibition"
  RESULT: "8.3%"
- COMPOUND: "CCOC(=O)c1c(O)oc2ccccc2c1=O"
  MEASUREMENT LABEL: "inhibition"
  RESULT: "93%"
- COMPOUND: "Nc1ccccc1NC(=O)c1c(O)c2ccccc2oc1=O"
  MEASUREMENT LABEL: "inhibition"
  RESULT: "23%"
- COMPOUND: "O=C(CCCCC1CCSS1)NCCCCCCNC(=O)c1c(O)c2ccccc2oc1=O (centres undefined)"
  MEASUREMENT LABEL: "inhibition"
  RESULT: "18%"
- COMPOUND: "Cc1ccc2oc(=O)c(C(=O)NCCCCCCCCN)c(O)c2c1"
  MEASUREMENT LABEL: "inhibition"
  RESULT: "30%"
- COMPOUND: "O=C(CCCCC1CCSS1)NCCCCCCCCNC(=O)c1c(O)c2ccccc2oc1=O (centres undefined)"
  MEASUREMENT LABEL: "inhibition"
  RESULT: "33%"
- COMPOUND: "NCCCCCCNC(=O)c1c(O)oc2ccccc2c1=O"
  MEASUREMENT LABEL: "inhibition"
  RESULT: "52%"
- COMPOUND: "CC(Cc1ccc(O)c(O)c1)C(C)Cc1ccc(O)c(O)c1 (centres undefined)"
  MEASUREMENT LABEL: "inhibition"
  RESULT: "84%"
